test: Oral bioavailability in Sprague-Dawley rat at 5 mg/kg measured during 1 to 24 hrs by LC-MS method; assay type: ADME, organism-based; details: in vivo
measuredEndpoint: bioavailability (%)
Give bare numbers, in %.

Qu. Bench note: what bioavailability did Cc1cc(Br)cc2c1OC(C(F)(F)F)C(C(=O)O)=C2 (stereo unspecified) show?
Ans. 46.3

----------
Please respond with reported CL/F for every item in the list.
assay: Apparent oral clearance in Sprague-Dawley rat at 10 mg/kg, po measured during 1 to 24 hrs by LC-MS method; assay type: ADME, organism-based; parameters: dose 10 mg/kg, route oral; conditions: Sprague-Dawley, in vivo
Answers are plain numbers, in L/h/kg.

[[record]]
compound = "[2H]C([2H])([2H])c1cc2c(c(C([2H])([2H])[2H])c1Cl)C=C(C(=O)O)C(C(F)(F)F)O2 (centres undefined)"
measuredendpoint = "CL/F"
unitlabel = "L/h/kg"
recordedmeasurement = 0.086

[[record]]
compound = "[2H]C([2H])([2H])c1cc2c(c(C([2H])([2H])[2H])c1Br)C=C(C(=O)O)C(C(F)(F)F)O2 (centres undefined)"
measuredendpoint = "CL/F"
unitlabel = "L/h/kg"
recordedmeasurement = 0.125

[[record]]
compound = "[2H]C([2H])([2H])c1cc(Br)cc2c1OC(C(F)(F)F)C(C(=O)O)=C2 (centres undefined)"
measuredendpoint = "CL/F"
unitlabel = "L/h/kg"
recordedmeasurement = 0.072


Pending compound:
Qu. Recorded CL/F of CC(C)(C)c1cc2c(cc1Cl)C=C(C(=O)O)[C@@H](C(F)(F)F)O2 [TIGEMOCOXIB] , please.
Ans. 0.242

----------
test system: Rattus norvegicus; experiment: Volume of distribution in Sprague-Dawley rat at 10 mg/kg, po measured during 1 to 24 hrs by LC-MS method; format: ADME, organism-based; set-up: dose 10 mg/kg, route oral; details: in vivo
measuredEndpoint: Vd
Mention the unit after the number when you answer.

Worked cases, Vd given:
[[record]]
compound = "CC(C)(C)c1cc2c(cc1Cl)C=C(C(=O)O)[C@@H](C(F)(F)F)O2 [TIGEMOCOXIB]"
measuredendpoint = "Vd"
recordedmeasurement = "2.314 L/kg"

[[record]]
compound = "[2H]C([2H])([2H])c1cc2c(c(C([2H])([2H])[2H])c1Br)C=C(C(=O)O)C(C(F)(F)F)O2 (stereo not given)"
measuredendpoint = "Vd"
recordedmeasurement = "0.57 L/kg"

[[record]]
compound = "Cc1cc2c(c(C)c1Cl)C=C(C(=O)O)C(C(F)(F)F)O2 (stereo not given)"
measuredendpoint = "Vd"
recordedmeasurement = "1.25 L/kg"

[[record]]
compound = "[2H]C([2H])([2H])c1cc2c(c(C([2H])([2H])[2H])c1Cl)C=C(C(=O)O)C(C(F)(F)F)O2 (stereo not given)"
measuredendpoint = "Vd"
recordedmeasurement = "0.26 L/kg"


Field: next compound
Qu. # get_value(readout='Vd', item= [2H]C([2H])([2H])c1cc(Br)cc2c1OC(C(F)(F)F)C(C(=O)O)=C2 (stereo not given) )
Ans. 0.53 L/kg

----------
test: AUC (0 to infinity) in Sprague-Dawley rat at 10 mg/kg, iv measured during 1 to 24 hrs by LC-MS method; format: ADME, organism-based; set-up: time infinity, dose 10 mg/kg, route intravenous; details: plasma
measuredEndpoint: AUC(0-inf)
Enter the number, and then the unit.

Qu. So what's the measured AUC(0-inf) for this one? [2H]C([2H])([2H])C([2H])([2H])c1cc(OC(F)(F)F)cc2c1OC(C(F)(F)F)C(C(=O)O)=C2 (stereo unspecified)
Ans. 223 µg·h/mL

----------
assay: AUC (0 to infinity) in Sprague-Dawley rat at 5 mg/kg, iv measured during 1 to 24 hrs by LC-MS method; format: ADME, organism-based, Plasma; design: time infinity, dose 5 mg/kg, route intravenous; settings: Sprague-Dawley, plasma
measuredEndpoint: AUC(0-inf) (ng·h/mL)
Numbers only, in ng·h/mL.

[[record]]
compound = "CCc1cc(OC(F)(F)F)cc2c1OC(C(F)(F)F)C(C(=O)O)=C2 (stereo not drawn)"
recordedmeasurement = 131000

[[record]]
compound = "CC(C)(C)c1cc2c(cc1Cl)C=C(C(=O)O)[C@@H](C(F)(F)F)O2 [TIGEMOCOXIB]"
recordedmeasurement = 31300


For the next question, use this compound.
Qu. Requested read-out: AUC(0-inf). Entry: [2H]C([2H])([2H])c1cc2c(c(C([2H])([2H])[2H])c1Br)C=C(C(=O)O)C(C(F)(F)F)O2 (stereo not drawn)
Ans. 37900

----------
assay: Apparent oral clearance in Sprague-Dawley rat at 5 mg/kg, iv measured during 1 to 24 hrs by LC-MS method; format: ADME, organism-based; parameters: dose 5 mg/kg, route oral; details: in vivo
measuredEndpoint: CL/F (mL/min/kg)
Answers are plain numbers, in mL/min/kg.

Some molecules with recorded CL/F:
[[record]]
molecule = "[2H]C([2H])([2H])c1cc2c(c(C([2H])([2H])[2H])c1Cl)C=C(C(=O)O)C(C(F)(F)F)O2 (stereo not given)"
recordedmeasurement = 1.32

[[record]]
molecule = "CC(C)(C)c1cc2c(cc1Cl)C=C(C(=O)O)[C@@H](C(F)(F)F)O2 [TIGEMOCOXIB]"
recordedmeasurement = 2.67

[[record]]
molecule = "CCc1cc(OC(F)(F)F)cc2c1OC(C(F)(F)F)C(C(=O)O)=C2 (stereo not given)"
recordedmeasurement = 0.633

[[record]]
molecule = "[2H]C([2H])([2H])c1cc(Br)cc2c1OC(C(F)(F)F)C(C(=O)O)=C2 (stereo not given)"
recordedmeasurement = 1.28


Qu. So what's the measured CL/F for this one? [2H]C([2H])([2H])c1cc2c(c(C([2H])([2H])[2H])c1Br)C=C(C(=O)O)C(C(F)(F)F)O2 (stereo not given)
Ans. 2.25

----------
test: Oral bioavailability in Sprague-Dawley rat at 10 mg/kg measured during 1 to 24 hrs by LC-MS method; format: ADME, organism-based; details: Sprague-Dawley, in vivo
measuredEndpoint: bioavailability (%)
One number for each entry, in %.

Look over these answered cases.
[[record]]
compound = "CC(C)(C)c1cc2c(cc1Cl)C=C(C(=O)O)[C@@H](C(F)(F)F)O2 [TIGEMOCOXIB]"
unitlabel = "%"
recordedmeasurement = 67.5

[[record]]
compound = "[2H]C([2H])([2H])c1cc2c(c(C([2H])([2H])[2H])c1Br)C=C(C(=O)O)C(C(F)(F)F)O2 (centres undefined)"
unitlabel = "%"
recordedmeasurement = 112

[[record]]
compound = "[2H]C([2H])([2H])c1cc(Br)cc2c1OC(C(F)(F)F)C(C(=O)O)=C2 (centres undefined)"
unitlabel = "%"
recordedmeasurement = 107


Qu. Would you kindly share the measured bioavailability for [2H]C([2H])([2H])c1cc2c(c(C([2H])([2H])[2H])c1Cl)C=C(C(=O)O)C(C(F)(F)F)O2 (centres undefined) ?
Ans. 92.8

----------
test: Volume of distribution in Sprague-Dawley rat at 5 mg/kg, iv measured during 1 to 24 hrs by LC-MS method; type: ADME, organism-based; parameters: dose 5 mg/kg, route intravenous; conditions: in vivo
measuredEndpoint: Vd (L/kg)
Numbers only, in L/kg.

Examples with their reported Vd follow.
[[record]]
compound = "[2H]C([2H])([2H])c1cc2c(c(C([2H])([2H])[2H])c1Br)C=C(C(=O)O)C(C(F)(F)F)O2 (stereo not given)"
recordedmeasurement = 0.529

[[record]]
compound = "CC(C)(C)c1cc2c(cc1Cl)C=C(C(=O)O)[C@@H](C(F)(F)F)O2"
recordedmeasurement = 1.35

[[record]]
compound = "[2H]C([2H])([2H])c1cc2c(c(C([2H])([2H])[2H])c1Cl)C=C(C(=O)O)C(C(F)(F)F)O2 (stereo not given)"
recordedmeasurement = 0.287

[[record]]
compound = "CCc1cc(OC(F)(F)F)cc2c1OC(C(F)(F)F)C(C(=O)O)=C2 (stereo not given)"
recordedmeasurement = 0.301


Qu. Can you look up the measured Vd of [2H]C([2H])([2H])c1cc(Br)cc2c1OC(C(F)(F)F)C(C(=O)O)=C2 (stereo not given) for me?
Ans. 0.461

----------
assay: Cmax in Sprague-Dawley rat at 1 mg/kg, iv measured during 1 to 24 hrs by LC-MS method; format: ADME, organism-based; parameters: dose 1 mg/kg, route intravenous; conditions: in vivo
measuredEndpoint: Cmax (ng/mL)
Give bare numbers, in ng/mL.

Here is how some compounds turned out for Cmax.
[[record]]
compound = "Cc1cc2c(c(C)c1Br)C=C(C(=O)O)C(C(F)(F)F)O2 (centres undefined)"
unitlabel = "ng/mL"
recordedmeasurement = 16700

[[record]]
compound = "Cc1cc2c(c(C)c1Cl)C=C(C(=O)O)C(C(F)(F)F)O2 (centres undefined)"
unitlabel = "ng/mL"
recordedmeasurement = 5040

[[record]]
compound = "Cc1cc(Cl)cc2c1OC(C(F)(F)F)C(C(=O)O)=C2 (centres undefined)"
unitlabel = "ng/mL"
recordedmeasurement = 4130


Qu. Could you share which Cmax value was measured for [2H]C([2H])([2H])c1cc(Cl)cc2c1OC(C(F)(F)F)C(C(=O)O)=C2 (centres undefined) ?
Ans. 9070

# credit: ChEMBL document CHEMBL3351875
